Origin of measurements: patent EP4656642A1

# Subject Of Test: ERα (Homo sapiens, UniProt P03372)
# Experiment Description: Degradation of ERα in MCF-7 cells (immunoblotting, 4 h)
# Assay type: cell-based
# Stated Conditions: 1nM compound
Measured Property: Degradation rate (%) of ERα in MCF-7 cells

See these solved cases before continuing.
Molecule	Observed
O=C1CCC(N2Cc3cc4c(cc3C2=O)OC2(CC4)CN(C3CCC4(CC3)CN(c3ccc([C@@H]5c6ccc(O)cc6CC[C@@H]5c5ccccc5)cc3)C4)C2)C(=O)N1 (stereo partly shown)	0
O=C1CCC(N2Cc3c(ccc4c3OCC43CCN(C(=O)[C@H]4C[C@@H](OC5CCN(c6ccc([C@@H]7c8ccc(O)cc8CC[C@@H]7c7ccccc7)cc6)CC5)C4)CC3)C2=O)C(=O)N1 (stereo partly shown)	37
O=C1CCC(N2Cc3cc4c(cc3C2=O)C2(CCN(C3CCC5(CC3)CCN(c3ccc([C@@H]6c7ccc(O)cc7CC[C@@H]6c6ccccc6)cc3)CC5)CC2)CO4)C(=O)N1 (stereo partly shown)	6
O=C1CCC(N2Cc3c(ccc4c3OCC43CCN(C[C@H]4CC[C@@H](OC5CCN(c6ccc([C@@H]7c8ccc(O)cc8CC[C@@H]7c7ccccc7)cc6)CC5)CC4)CC3)C2=O)C(=O)N1 (stereo partly shown)	10

a = CN(C(=O)CN1CCC2(CC1)COc1c2ccc2c1CN(C1CCC(=O)NC1=O)C2=O)C1CC2(CCN(c3ccc([C@@H]4c5ccc(O)cc5CC[C@@H]4c4ccccc4)cc3)CC2)C1 (stereo partly shown)
b = O=C1CCC(N2Cc3c(ccc4c3OCC43CCN(C4CCN(C5CC6(CCN(c7ccc([C@@H]8c9ccc(O)cc9CC[C@@H]8c8ccccc8)cc7)CC6)C5)[C@@H](C(=O)NC5CC5)C4)CC3)C2=O)C(=O)N1 (stereo partly shown)
QUERY: Which has the higher Degradation rate (%) of ERα in MCF-7 cells, a or b ? Record your answer as the label of the chosen record.
RESULT: b

====

# Subject Of Test: ERα (Homo sapiens, UniProt P03372)
# Sequence (P03372 1-595): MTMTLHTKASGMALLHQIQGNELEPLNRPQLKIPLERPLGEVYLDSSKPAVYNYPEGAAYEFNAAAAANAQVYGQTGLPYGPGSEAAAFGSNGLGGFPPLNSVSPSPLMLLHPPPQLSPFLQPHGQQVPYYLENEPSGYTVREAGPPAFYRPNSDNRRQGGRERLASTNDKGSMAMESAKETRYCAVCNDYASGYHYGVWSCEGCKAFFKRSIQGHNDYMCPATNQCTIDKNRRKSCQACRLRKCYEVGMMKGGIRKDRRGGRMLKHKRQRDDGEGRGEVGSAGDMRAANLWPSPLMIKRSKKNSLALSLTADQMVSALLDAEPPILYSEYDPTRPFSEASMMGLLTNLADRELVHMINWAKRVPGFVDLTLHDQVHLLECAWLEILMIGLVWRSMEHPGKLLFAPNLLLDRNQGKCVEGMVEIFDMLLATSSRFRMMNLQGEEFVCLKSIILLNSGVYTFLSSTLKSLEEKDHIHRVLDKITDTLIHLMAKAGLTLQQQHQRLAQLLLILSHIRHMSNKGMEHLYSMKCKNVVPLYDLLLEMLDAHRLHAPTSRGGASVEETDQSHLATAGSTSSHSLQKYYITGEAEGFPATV
# Experiment Description: Degradation of ERα in T-47D cells (immunoblotting, 4 h)
# Format: cell-based
# Set-up: host or cells: T-47D
# Stated Conditions: 1nM compound
Measured Property: Degradation rate (%) of ERα in T-47D cells

Molecule	Observed
O=C1CCC(N2Cc3cc4c(cc3C2=O)OC2(CC4)CCN(C(=O)CN3CCC4(CC3)CCN(c3ccc([C@@H]5c6ccc(O)cc6CC[C@@H]5c5ccccc5)cc3)CC4)CC2)C(=O)N1 (some centres unmarked)	26
O=C1CCC(N2Cc3c(ccc4c3OCC43CCN(C4CCN(C5CN(c6ccc([C@@H]7c8ccc(O)cc8CC[C@@H]7c7ccccc7)cc6)C5)CC4)CC3)C2=O)C(=O)N1 (some centres unmarked)	9
O=C1CCC(N2Cc3cc4c(cc3C2=O)CCC2(CN(C(=O)C3CCC5(CC3)CN(c3ccc([C@@H]6c7ccc(O)cc7CC[C@@H]6c6ccccc6)cc3)C5)C2)O4)C(=O)N1 (some centres unmarked)	7
O=C1CCC(N2Cc3ccc4c(c3C2=O)OCC2(CCN(C3CC5(CCN(c6ccc([C@@H]7c8ccc(O)cc8CC[C@@H]7c7ccccc7)cc6)CC5)C3)CC2)C4)C(=O)N1 (some centres unmarked)	15
C[C@@H]1CN(C(=O)C2(F)CCN(c3ccc([C@@H]4c5ccc(O)cc5CC[C@@H]4c4ccccc4)cc3)CC2)CCC1N1CCC2(CC1)COc1c2ccc2c1CN(C1CCC(=O)NC1=O)C2=O (some centres unmarked)	31

P = O=C1CCC(N2Cc3cc4c(cc3C2=O)OCC2(CCN(C3CC5(CCN(c6ccc(C7c8ccc(O)cc8CCC7c7ccccc7)cc6)CC5)C3)CC2)O4)C(=O)N1 (centres unmarked)
Q = COC(=O)[C@@H]1C[C@H](N2CCC3(CC2)COc2c3ccc3c2CN(C2CCC(=O)NC2=O)C3=O)CCN1C1CCN(c2ccc([C@@H]3c4ccc(O)cc4CC[C@@H]3c3ccccc3)cc2)CC1 (some centres unmarked)
QUERY: Which value of Degradation rate (%) of ERα in T-47D cells is smaller, the one for P or the one for Q ? Record your answer as the label of the chosen record.
RESULT: P

A = O=C1CCC(N2Cc3c(ccc4c3OCC43CCN(C(=O)CC4CCN(c5ccc([C@@H]6c7ccc(O)cc7CC[C@@H]6c6ccccc6)cc5)CC4)CC3)C2=O)C(=O)N1 (some centres unmarked) [H16]
B = CC1(CN2CCC3(CC2)COc2c3ccc3c2CN(C2CCC(=O)NC2=O)C3=O)CCN(C(=O)C2CCN(c3ccc([C@@H]4c5ccc(O)cc5CC[C@@H]4c4ccccc4)cc3)CC2)CC1 (some centres unmarked)
QUERY: Which has the higher Degradation rate (%) of ERα in T-47D cells, A or B ? Record your answer as the label of the chosen record.
RESULT: A
(A: 48%, B: 31%)

====

# Subject Of Test: ERα (Homo sapiens, UniProt P03372)
# Experiment Description: Degradation of ERα in MCF-7 cells (immunoblotting, 4 h)
# Type: cell-based
# Stated Conditions: 10nM compound
Measured Property: Degradation rate (%) of ERα in MCF-7 cells

Molecule	Observed
O=C1CCC(N2C(=O)c3cc4c(cc3C2=O)OC2(CC4)CN(CC3CCC4(CC3)CCN(c3ccc([C@@H]5c6ccc(O)cc6CC[C@@H]5c5ccccc5)cc3)CC4)C2)C(=O)N1 (stereo partly drawn) [A41]	-18

a = CN(CC(=O)N1CCC2(CC1)COc1c2ccc2c1CN(C1CCC(=O)NC1=O)C2=O)C1CC2(CCN(c3ccc([C@@H]4c5ccc(O)cc5CC[C@@H]4c4ccccc4)cc3)CC2)C1 (stereo partly drawn) [H48]
b = O=C1CCC(N2C(=O)c3ccc4c(c3C2=O)OCC42CCN(C3CCN(C(=O)C4CCN(c5ccc([C@@H]6c7ccc(O)cc7CC[C@@H]6c6ccccc6)cc5)CC4)CC3)CC2)C(=O)N1 (stereo partly drawn) [H27]
QUERY: Which value of Degradation rate (%) of ERα in MCF-7 cells is smaller, the one for a or the one for b ? Record your answer as the label of the chosen record.
RESULT: b

====

# Subject Of Test: ERα (Homo sapiens)
# Sequence (P03372 1-595): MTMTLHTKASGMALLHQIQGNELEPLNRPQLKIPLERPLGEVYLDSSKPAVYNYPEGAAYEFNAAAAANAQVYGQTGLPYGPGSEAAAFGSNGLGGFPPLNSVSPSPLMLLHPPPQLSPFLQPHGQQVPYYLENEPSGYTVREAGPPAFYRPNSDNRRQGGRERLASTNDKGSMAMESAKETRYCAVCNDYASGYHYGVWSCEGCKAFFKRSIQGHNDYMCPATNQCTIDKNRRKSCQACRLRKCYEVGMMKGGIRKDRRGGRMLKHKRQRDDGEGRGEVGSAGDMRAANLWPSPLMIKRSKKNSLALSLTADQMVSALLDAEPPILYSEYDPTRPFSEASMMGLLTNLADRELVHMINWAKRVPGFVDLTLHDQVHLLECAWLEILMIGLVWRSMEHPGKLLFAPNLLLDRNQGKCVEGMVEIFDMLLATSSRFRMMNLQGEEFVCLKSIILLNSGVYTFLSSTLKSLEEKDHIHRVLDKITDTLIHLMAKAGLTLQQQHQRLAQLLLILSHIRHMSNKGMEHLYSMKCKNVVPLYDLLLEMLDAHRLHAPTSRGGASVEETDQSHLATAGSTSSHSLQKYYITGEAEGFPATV
# Experiment Description: Degradation of ERα in T-47D cells (immunoblotting, 4 h)
# Assay type: cell-based
# Set-up: host or cells: T-47D
# Stated Conditions: 10nM compound
Measured Property: Degradation rate (%) of ERα in T-47D cells

Molecule	Display Unit	Observed
O=C1CCC(N2Cc3cc4c(cc3C2=O)OC2(CC4)CN(C3CN(C4CCN(c5ccc([C@@H]6c7ccc(O)cc7CC[C@@H]6c6ccccc6)cc5)CC4)C3)C2)C(=O)N1 (stereo partly drawn)	%	38

1 = O=C1CCC(N2Cc3c(ccc4c3OCC43CCN(C(=O)CC4CCN(c5ccc([C@@H]6c7ccc(O)cc7CC[C@@H]6c6ccccc6)cc5)CC4)CC3)C2=O)C(=O)N1 (stereo partly drawn) [H16]
2 = O=C1CCC(N2C(=O)c3cc4c(cc3C2=O)OCC2(CCN(C3CC5(CCN(c6ccc(C7c8ccc(O)cc8CCC7c7ccccc7)cc6)CC5)C3)CC2)C4)C(=O)N1 (stereo not drawn)
QUERY: Which has the higher Degradation rate (%) of ERα in T-47D cells, 1 or 2 ? Record your answer as the label of the chosen record.
RESULT: 1
